Value source: ChEMBL document CHEMBL1132996

Target: UniProt P14416
Sequence (P14416 whole entry): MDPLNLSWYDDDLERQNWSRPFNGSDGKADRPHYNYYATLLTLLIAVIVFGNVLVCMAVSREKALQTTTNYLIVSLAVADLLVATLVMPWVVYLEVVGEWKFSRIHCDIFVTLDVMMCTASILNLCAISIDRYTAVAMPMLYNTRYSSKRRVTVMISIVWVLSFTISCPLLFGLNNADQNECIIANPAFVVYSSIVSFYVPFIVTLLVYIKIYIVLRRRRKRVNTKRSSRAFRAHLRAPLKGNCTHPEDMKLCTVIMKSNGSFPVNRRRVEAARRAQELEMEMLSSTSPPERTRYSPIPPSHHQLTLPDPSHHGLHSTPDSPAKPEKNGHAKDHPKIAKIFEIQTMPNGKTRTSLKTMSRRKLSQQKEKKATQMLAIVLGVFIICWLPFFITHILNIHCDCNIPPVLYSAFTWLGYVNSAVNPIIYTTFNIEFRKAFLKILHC
Experiment: Displacement of [3H]raclopride from human Dopamine receptor D2A
observable: log10(Ki) (log10 of the value in µM)
Recall that a logarithmic scale is used here: each number is log10 of Ki in µM.

Query block: Request: log10(Ki), test system UniProt P14416, entry CN1CCc2ccc3c4c2[C@H]1Cc1cccc(c1-4)[C@H]3N
Result block: -0.58

Query block: Request: log10(Ki), test system UniProt P14416, entry CN1CCc2ccc3c4c2[C@H]1Cc1cccc(c1-4)[C@]3(C)O
Result block: -1.59

Query block: Request: log10(Ki), test system UniProt P14416, entry CC(=O)N[C@H]1c2cccc3c2-c2c1ccc1c2[C@@H](C3)N(C)CC1
Result block: 0.90

Query block: Request: log10(Ki), test system UniProt P14416, entry CN1CCc2ccc3c4c2[C@H]1Cc1cccc(c1-4)C3=O
Result block: -0.50

Query block: Request: log10(Ki), test system UniProt P14416, entry CCO[C@]1(CC)c2cccc3c2-c2c1ccc1c2[C@@H](C3)N(C)CC1
Result block: -1.15

Query block: Request: log10(Ki), test system UniProt P14416, entry CN1CCc2ccc3c4c2[C@H]1Cc1cccc(c1-4)[C@@]3(C)O
Result block: -0.74

Query block: Request: log10(Ki), test system UniProt P14416, entry CO[C@]1(C)c2cccc3c2-c2c1ccc1c2[C@@H](C3)N(C)CC1
Result block: -2.15
